Sourced from the Human Domainome abundance scans (Beltran et al. 2025)

B1: POU domain, class 4, transcription factor 1, residues 266 to 347; numbered along this chain, Q01851 (parent)
chain: RELEAFAERFKQRRIKLGVTQADVGSALANLKIPGVGSLSQSTICRFESLTLSHNNMIALKPILQAWLEEAEGAQREKMNKP

Variants of: B1
test name: abundance fitness (aPCA) (normalised: wild type 0, dead -1); higher = more abundant; growth selection in yeast, the domain comes from the species named
condition details: Homo sapiens
Assign Condition met whenever abundance fitness does not fall below -0.1; assign Condition not met whenever it does.

Consider the worked cases shown below.
var	class name
K81S	Condition met
I58W	Condition not met
L68E	Condition not met
M57A	Condition not met
E72S	Condition not met

Continue with the next variant.
Please check the record L17I and state if its abundance fitness is at or above -0.1. Condition not met
